# ASSAY TEXT: Pharmacokinetics in mice (plasma and brain levels, LC-MS)
# Format: in vivo
# APPLIED CONDITIONS: male, C57BL/6J, brain and plasma, ip; mouse, 2.5 mg kg−1 i.p., from AUC0-inf; read-out: ratio brain/plasma
MEASURED ATTRIBUTE: Kp
# print the numeric value only

Which measured Kp value corresponds to CN1CCN(C2=Nc3ccccc3Oc3ccc(Cl)cc32)CC1 [Loxapine, reference compound] ?
5.12

====

# ASSAY TEXT: Pharmacokinetics in mice (plasma and brain levels, LC-MS)
# Type: in vivo
# APPLIED CONDITIONS: male, C57BL/6J, ip; mouse, I.P. 2.5 mg/kg, brain; read-out: t1/2
MEASURED ATTRIBUTE: half-life (h)
Give just the number in h; leave the unit off.

Consider the molecule CN1CCN(C2=Nc3ccccc3Oc3ccc(Cl)cc32)CC1 [Loxapine, reference compound] and give its measured half-life.
1.37
